Assay explanation: acute toxicity in mice after intraperitoneal administration in rape oil
Settings: mouse, in vivo, ip
Parameter: LD50 at 480 h (mg/kg)
Just the number in mg/kg, nothing appended.

Enquiry: Give its LD50 at 480 h value. Item: `COc1cc(C)c(CC/C(C)=C/C=C/C(C)=C/C(=O)O)c(C)c1C`
Return: 1400

* * *

Assay explanation: acute toxicity in mice after intraperitoneal administration in rape oil
Settings: mouse, in vivo, ip
Parameter: LD50 at 24 h

Enquiry: Give its LD50 at 24 h value. Item: `COc1cc(C)c(CC/C(C)=C/C=C/C(C)=C/C(=O)O)c(C)c1C`
Return: > 4000 mg/kg
